# study-system: UGT1A9 (Homo sapiens)
# Sequence (O60656 26-530): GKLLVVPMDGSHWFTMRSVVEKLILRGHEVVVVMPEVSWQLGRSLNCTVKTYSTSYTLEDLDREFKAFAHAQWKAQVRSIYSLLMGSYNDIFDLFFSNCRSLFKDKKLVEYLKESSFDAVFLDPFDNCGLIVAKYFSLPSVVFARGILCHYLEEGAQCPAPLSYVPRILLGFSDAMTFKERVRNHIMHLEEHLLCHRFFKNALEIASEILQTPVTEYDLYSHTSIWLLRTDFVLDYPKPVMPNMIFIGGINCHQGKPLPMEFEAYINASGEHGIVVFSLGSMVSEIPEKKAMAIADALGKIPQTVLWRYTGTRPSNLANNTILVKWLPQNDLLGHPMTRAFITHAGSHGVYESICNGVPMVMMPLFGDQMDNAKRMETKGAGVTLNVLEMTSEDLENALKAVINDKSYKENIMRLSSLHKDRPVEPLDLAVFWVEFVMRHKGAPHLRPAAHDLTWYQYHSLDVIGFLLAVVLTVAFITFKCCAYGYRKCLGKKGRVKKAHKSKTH
# experiment: Inhibition of expressed UGT1A9 (probe propofol)
# Type: in vitro ADME
# cond: recombinant isozyme; mean ± SD of triplicate; unit not given (IC50 classes in μM); read-out: IC50 towards UGT1A9
experimental-readout: IC50

[
  {
    "compound": "CC(C)=CCC[C@](C)(O)[C@H]1CC[C@]2(C)[C@@H]1[C@H](O)C[C@@H]1[C@@]3(C)CC[C@H](O)C(C)(C)[C@@H]3[C@@H](O[C@@H]3O[C@H](CO)[C@@H](O)[C@H](O)[C@H]3O[C@@H]3O[C@H](CO)[C@@H](O)[C@H](O)[C@H]3O)C[C@]12C [Compound C7, Ginsenoside Rf]",
    "IC50": "> 100 µM"
  }
]

Form: compound = CC(C)=CCC[C@](C)(O[C@@H]1O[C@H](CO)[C@@H](O)[C@H](O)[C@H]1O)[C@H]1CC[C@]2(C)[C@@H]1[C@H](O)C[C@@H]1[C@@]3(C)CC[C@H](O[C@@H]4O[C@H](CO)[C@@H](O)[C@H](O)[C@H]4O[C@@H]4O[C@H](CO)[C@@H](O)[C@H](O)[C@H]4O)C(C)(C)[C@@H]3CC[C@]12C [Compound D2, Ginsenoside Rd] ; IC50 = > 100 µM
